These entries and their values trace back to ChEMBL document CHEMBL1145739.

SYSTEM_TESTED: Integrin alpha-4/beta-1 (Homo sapiens, UniProt P05556+P13612)
Sequence (P05556 whole entry): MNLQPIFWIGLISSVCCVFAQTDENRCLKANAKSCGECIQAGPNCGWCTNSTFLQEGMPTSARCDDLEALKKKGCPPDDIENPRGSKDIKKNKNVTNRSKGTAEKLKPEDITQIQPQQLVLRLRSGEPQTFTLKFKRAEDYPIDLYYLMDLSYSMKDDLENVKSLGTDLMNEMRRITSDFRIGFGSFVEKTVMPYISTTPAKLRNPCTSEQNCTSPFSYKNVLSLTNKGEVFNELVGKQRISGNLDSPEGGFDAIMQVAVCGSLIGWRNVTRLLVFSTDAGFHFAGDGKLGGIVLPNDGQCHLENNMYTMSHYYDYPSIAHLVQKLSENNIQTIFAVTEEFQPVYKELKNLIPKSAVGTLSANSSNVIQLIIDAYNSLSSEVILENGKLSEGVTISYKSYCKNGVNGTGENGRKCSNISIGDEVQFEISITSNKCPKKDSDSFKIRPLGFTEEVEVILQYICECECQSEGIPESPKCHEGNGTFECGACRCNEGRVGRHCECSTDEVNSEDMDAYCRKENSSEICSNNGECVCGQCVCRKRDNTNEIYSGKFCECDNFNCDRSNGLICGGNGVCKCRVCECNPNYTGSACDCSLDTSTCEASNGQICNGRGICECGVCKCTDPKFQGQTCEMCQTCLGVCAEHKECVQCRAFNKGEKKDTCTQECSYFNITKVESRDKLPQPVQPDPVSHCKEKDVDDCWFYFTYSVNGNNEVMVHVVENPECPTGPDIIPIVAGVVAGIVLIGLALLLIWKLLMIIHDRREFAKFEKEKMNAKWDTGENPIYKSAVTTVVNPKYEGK
Sequence (P13612 whole entry): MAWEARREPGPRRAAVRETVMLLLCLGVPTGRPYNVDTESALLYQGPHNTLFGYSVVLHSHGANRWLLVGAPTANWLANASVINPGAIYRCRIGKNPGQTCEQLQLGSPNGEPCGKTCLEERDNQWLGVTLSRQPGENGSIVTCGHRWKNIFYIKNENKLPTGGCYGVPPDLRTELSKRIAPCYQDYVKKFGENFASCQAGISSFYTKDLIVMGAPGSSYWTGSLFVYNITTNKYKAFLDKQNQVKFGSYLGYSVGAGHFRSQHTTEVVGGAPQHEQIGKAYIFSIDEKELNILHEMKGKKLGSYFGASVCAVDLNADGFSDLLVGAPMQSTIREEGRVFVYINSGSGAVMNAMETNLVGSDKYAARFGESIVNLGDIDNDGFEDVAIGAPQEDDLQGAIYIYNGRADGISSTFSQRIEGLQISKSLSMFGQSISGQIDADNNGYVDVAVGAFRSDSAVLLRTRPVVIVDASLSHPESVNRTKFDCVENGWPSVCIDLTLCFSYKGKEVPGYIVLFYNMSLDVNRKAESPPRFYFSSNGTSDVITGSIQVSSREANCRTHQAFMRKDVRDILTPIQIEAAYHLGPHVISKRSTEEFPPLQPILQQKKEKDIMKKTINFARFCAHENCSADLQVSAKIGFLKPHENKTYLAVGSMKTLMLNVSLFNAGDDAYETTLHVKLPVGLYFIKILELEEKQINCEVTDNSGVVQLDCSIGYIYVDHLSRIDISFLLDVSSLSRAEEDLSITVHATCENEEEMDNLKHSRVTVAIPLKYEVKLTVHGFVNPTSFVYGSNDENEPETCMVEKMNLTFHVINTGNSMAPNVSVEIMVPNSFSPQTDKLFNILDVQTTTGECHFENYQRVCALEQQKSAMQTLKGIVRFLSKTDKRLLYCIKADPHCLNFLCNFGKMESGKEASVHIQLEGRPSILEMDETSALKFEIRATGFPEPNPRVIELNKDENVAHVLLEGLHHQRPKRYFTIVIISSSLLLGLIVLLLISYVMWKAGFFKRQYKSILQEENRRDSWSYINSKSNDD
ASSAY_INFO: Binding affinity towards VLA-4 (alpha4 beta-1) receptor in human Jurkat cells using [125I]VCAM-Ig as radioligand
// thresholds for IC50 classes: LOW (below 0.5 nM), MEDIUM (0.5 nM to below 10 nM), HIGH (10 nM or more)

In [3]: df
Out[3]:
                                    molecule  answer_label
 0  Cc1ccc(S(=O)(=O)C2(C(=O)N[C@@H](Cc3ccc(-c4ccccc4)cc3)C(=O)O)CCCCC2)cc1          HIGH
 1  CCN(CC)S(=O)(=O)C1(C(=O)N[C@@H](Cc2ccc(-c3ccccc3OC)cc2)C(=O)O)CCCC1        MEDIUM
 2  COc1ccccc1-c1ccc(C[C@H](NC(=O)C2(S(=O)(=O)c3ccccc3)CCCNC2)C(=O)O)cc1 (stereo partly specified)           LOW
 3  COc1cccc(OC)c1-c1ccc(C[C@H](NC(=O)C2(S(=O)(=O)c3cn(C)cn3)CCCNC2)C(=O)O)cc1 (stereo partly specified)           LOW
 4  O=C(O)[C@H](Cc1ccc(-c2ccccc2)cc1)NC(=O)C1(S(=O)(=O)Cc2ccccc2)CCCC1          HIGH
 5  COc1ccccc1-c1ccc(C[C@H](NC(=O)C2(S(=O)(=O)c3ccc(F)cc3)CCCC2)C(=O)O)cc1           LOW
 6  CCS(=O)(=O)C1(C(=O)N[C@@H](Cc2ccc(-c3ccccc3OC)cc2)C(=O)O)CCCC1        MEDIUM
 7  COc1ccccc1-c1ccc(C[C@H](NC(=O)C2(S(=O)(=O)Nc3ccccc3)CCCC2)C(=O)O)cc1          HIGH
 8  COc1ccccc1-c1ccc(C[C@H](NC(=O)C2(S(=O)(=O)c3ccc(C)cc3)CCCCC2)C(=O)O)cc1        MEDIUM
 9  O=C(O)[C@H](Cc1ccc(-c2ccccc2)cc1)NC(=O)C1(S(=O)(=O)C2CCCCC2)CCCCC1          HIGH
10  COc1cccc(OC)c1-c1ccc(C[C@H](NC(=O)C2(S(=O)(=O)c3ccccc3)CCN(C)CC2)C(=O)O)cc1        MEDIUM
11  O=C(O)[C@H](Cc1ccc(-c2ccccc2)cc1)NC(=O)C1(S(=O)(=O)c2ccc(Br)cc2)CCCCC1          HIGH
12  COc1ccccc1-c1ccc(C[C@H](NC(=O)C2(S(=O)(=O)c3ccccc3)CCC2)C(=O)O)cc1        MEDIUM
13  CCCCCCCCS(=O)(=O)C1(C(=O)N[C@@H](Cc2ccc(-c3ccccc3)cc2)C(=O)O)CCCC1          HIGH
14  COc1cccc(OC)c1-c1ccc(C[C@H](NC(=O)C2(S(=O)(=O)c3ccccc3N3CCCC3)CCCNC2)C(=O)O)cc1 (stereo partly specified)           LOW
15  O=C(Nc1ccc(C[C@H](NC(=O)C2(S(=O)(=O)c3ccccc3)CCOCC2)C(=O)O)cc1)c1c(Cl)cccc1Cl           LOW

====

SYSTEM_TESTED: Integrin alpha-4/beta-1 (Homo sapiens, UniProt P05556+P13612)
ASSAY_INFO: Binding affinity towards VLA-4 (alpha4 beta-1) receptor in human Jurkat cells using [125I]VCAM-Ig as radioligand
pIC50: −log10 of the molar value.
PROPERTY: pIC50

>>> print(df.to_string())
                                    molecule  assay_result
 0  COc1cccc(OC)c1-c1ccc(C[C@H](NC(=O)C2(S(=O)(=O)c3ccccc3)CCCC2)C(=O)O)cc1          9.96
 1  O=C(O)[C@H](Cc1ccc(-c2ccccc2)cc1)NC(=O)C1(S(=O)(=O)Cc2ccccc2)CCCCC1          7.19
 2  COc1ccccc1-c1ccc(C[C@H](NC(=O)C2(S(=O)(=O)c3ccccc3)CCN(C(C)(C)C)CC2)C(=O)O)cc1          7.25
 3  COc1cccc(OC)c1-c1ccc(C[C@H](NC(=O)C2(S(=O)(=O)c3ccccc3)CCOCC2)C(=O)O)cc1          9.80
 4  COc1cccc(OC)c1-c1ccc(C[C@H](NC(=O)C2(S(=O)(=O)Cc3ccccc3)CCCNC2)C(=O)O)cc1 (stereo partly specified)          9.11
 5  CCN1CCC(C(=O)N[C@@H](Cc2ccc(-c3ccccc3OC)cc2)C(=O)O)(S(=O)(=O)c2ccccc2)CC1          7.51
 6  Cc1ccc(S(=O)(=O)C2(C(=O)N[C@@H](Cc3ccc(-c4ccccc4)cc3)C(=O)O)CCCC2)cc1          7.55
 7  COc1ccccc1-c1ccc(C[C@H](NC(=O)C2(S(=O)(=O)c3ccccc3)CCOC2)C(=O)O)cc1 (stereo partly specified)          9.11
 8  O=C(O)[C@H](Cc1ccc(-c2ccccc2)cc1)NC(=O)C1(S(=O)(=O)c2ccccc2Br)CCCC1          6.98
 9  COc1ccccc1-c1ccc(C[C@H](NC(=O)C2(S(=O)(=O)c3ccccc3)CCSCC2)C(=O)O)cc1          8.39
10  COc1cccc(OC)c1-c1ccc(C[C@H](NC(=O)C2(S(=O)(=O)c3ccccc3)CCC2)C(=O)O)cc1          9.77
11  COc1ccccc1-c1ccc(C[C@H](NC(=O)C2(S(=O)(=O)c3cccc(C)c3)CCCCC2)C(=O)O)cc1          9.00
12  COc1ccccc1-c1ccc(C[C@H](NC(=O)C2(S(=O)(=O)c3nccn3C)CCCC2)C(=O)O)cc1          9.68
13  COc1cccc(OC)c1-c1ccc(C[C@H](NC(=O)C2(S(=O)(=O)CCN3CCOCC3)CCCNC2)C(=O)O)cc1 (stereo partly specified)          9.17
14  COc1cccc(OC)c1-c1ccc(C[C@H](NC(=O)C2(S(=O)(=O)c3ccc(F)cc3)CCCC2)C(=O)O)cc1         10.15
15  COc1cccc(OC)c1-c1ccc(C[C@H](NC(=O)C2(S(=O)(=O)c3ccc(Br)cc3)CCCNC2)C(=O)O)cc1 (stereo partly specified)          9.72
